System: Enterococcus sp.
Assay: In vitro antibacterial evaluation: minimum inhibitory concentration (MIC), broth dilution method
Assay type: cell-based
Conditions: Enterococcus avium (GC 4558); 18 hours at 35° C.
Each entry below carries its reported MIC Enterococcus avium (GC 4558).

compound | MIC Enterococcus avium (GC 4558) (µg/mL)
CC(C1CCCCC1)C1NC(=O)CNC(=O)C(CO)NC(=O)C(C(O)C2CNC(=N)N2C2OC(CO)C(O)C(O)C2O)NC(=O)C(C(O)C2CNC(=N)N2)NC(=O)C(Cc2ccc(OC3OC(CO)C(OC4OC5COC(c6ccccc6)OC5C(O)C4O)C(O)C3O)cc2)NC1=O (stereo not shown) [Example 201] | 1
CC(c1ccccc1)C1NC(=O)CNC(=O)C(CO)NC(=O)C(C(O)C2CN(c3nc4ccccc4o3)C(=N)N2C2OC(CO)C(O)C(O)C2O)NC(=O)C(C(O)C2CNC(=Nc3nc4ccccc4o3)N2)NC(=O)C(Cc2ccc(OC3OC(CO)C(OC4OC5COC6(OC5C(O)C4O)C4CC5CC(C4)CC6C5)C(O)C3O)cc2)NC1=O (stereo not shown) [Example 227] | 8
CC(c1ccccc1)C1NC(=O)CNC(=O)C(CO)NC(=O)C(C(O)C2CNC(=N)N2C2OC(CO)C(O)C(O)C2O)NC(=O)C(C(O)C2CNC(=N)N2)NC(=O)C(Cc2ccc(OC3OC(CO)C(OC4OC5COC6(CC(C)(C)CC(C)(C)C6)OC5C(O)C4O)C(O)C3O)cc2)NC1=O (stereo not shown) [Example 207] | 1
N=C1NCC(C(O)C2NC(=O)C(Cc3ccc(OC4OC(CO)C(OC5OC6COC7(OC6C(O)C5O)C5CC6CC(C5)CC7C6)C(O)C4O)cc3)NC(=O)C(Cc3ccccc3)NC(=O)CNC(=O)C(CO)NC(=O)C(C(O)C3CNC(=N)N3C3OC(CO)C(O)C(O)C3O)NC2=O)N1 (stereo not shown) [Example 220] | 2

###

Each entry below carries its reported MIC Coagulase Negative Staphylococcus (GC 4547).
Test system: Staphylococcus sp.
Assay: In vitro antibacterial evaluation: minimum inhibitory concentration (MIC), broth dilution method
Assay type: cell-based
Conditions: broth dilution, 5×10^5 CFU/mL, 18 hours at 35° C.
endpoint-name: MIC Coagulase Negative Staphylococcus (GC 4547)

molecule | value
CC(c1ccccc1)C1NC(=O)CNC(=O)C(CO)NC(=O)C(C(O)C2CNC(=N)N2C2OC(CO)C(O)C(O)C2O)NC(=O)C(C(O)C2CNC(=N)N2)NC(=O)C(Cc2ccc(OC3OC(CO)C(OC4OC(CO)C(O)C5OC(CC67CC8CC(CC(C8)C6)C7)OC45)C(O)C3O)cc2)NC1=O (stereo not shown) [Example 128] | 4 µg/mL
CSc1ccc(C2OCC3OC(OC4C(CO)OC(Oc5ccc(CC6NC(=O)C(C(C)c7ccccc7)NC(=O)CNC(=O)C(CO)NC(=O)C(C(O)C7CNC(=N)N7C7OC(CO)C(O)C(O)C7O)NC(=O)C(C(O)C7CNC(=N)N7)NC6=O)cc5)C(O)C4O)C(O)C(O)C3O2)cc1[N+](=O)[O-] (stereo not shown) [Example 168] | 2 µg/mL
CC(c1ccccc1)C1NC(=O)CNC(=O)C(CO)NC(=O)C(C(O)C2CNC(=N)N2C2OC(CO)C(O)C(O)C2O)NC(=O)C(C(O)C2CNC(=N)N2)NC(=O)C(Cc2ccc(OC3OC(CO)C(OC4OC5COC(c6ccc(C(=O)c7ccccc7)cc6)OC5C(O)C4O)C(O)C3O)cc2)NC1=O (stereo not shown) [Example 173] | 2 µg/mL
COc1cccc(C2OC3C(OC4C(CO)OC(Oc5ccc(CC6NC(=O)C(C(C)c7ccccc7)NC(=O)CNC(=O)C(CO)NC(=O)C(C(O)C7CNC(=N)N7C7OC(CO)C(O)C(O)C7O)NC(=O)C(C(O)C7CNC(=N)N7)NC6=O)cc5)C(O)C4O)OC(CO)C(O)C3O2)c1 (single isomer, unassigned) [Example 137a] | 16 µg/mL
CC(c1ccccc1)C1NC(=O)CNC(=O)C(CO)NC(=O)C(C(O)C2CNC(=N)N2C2OC(CO)C(O)C(O)C2O)NC(=O)C(C(O)C2CNC(=N)N2)NC(=O)C(Cc2ccc(OC3OC(CO)C(OC4OC5COC(c6cccc(Oc7ccccc7)c6)OC5C(O)C4O)C(O)C3O)cc2)NC1=O (stereo not shown) [Example 170] | 4 µg/mL
CC(c1ccccc1)C1NC(=O)CNC(=O)C(CO)NC(=O)C(C(O)C2CNC(=N)N2C2OC(CO)C(O)C(O)C2O)NC(=O)C(C(O)C2CNC(=N)N2)NC(=O)C(Cc2ccc(OC3OC(CO)C(OC4OC5COC(c6ccc(-c7cccs7)cc6)OC5C(O)C4O)C(O)C3O)cc2)NC1=O (stereo not shown) [Example 163] | 8 µg/mL
CC(c1ccccc1)C1NC(=O)CNC(=O)C(CO)NC(=O)C(C(O)C2CNC(=N)N2C2OC(CO)C(O)C(O)C2O)NC(=O)C(C(O)C2CNC(=NC(=O)C(C)(C)C)N2)NC(=O)C(Cc2ccc(OC3OC(CO)C(OC4OC(CO)C(O)C(O)C4O)C(O)C3O)cc2)NC1=O (stereo not shown) [Example 155] | <0.5 to 2 µg/mL

###

Each entry below carries its reported MIC Enterococcus faecalis (GC 4553).
System: Enterococcus sp.
Test: In vitro antibacterial evaluation: minimum inhibitory concentration (MIC), broth dilution method
Type: cell-based
Settings: broth dilution, 18 hours at 35° C.
Numbered stars: 1 amine (or outer) side, 2 acyl side, 3 side chain; on linkers, the order of the positions; unused ones are H or OH. Square brackets hold non-standard residues; d marks the D form. Peptide text beside a SMILES is read from it. ξ: configuration not given here. X1 = N=C1NCC(C(O)C(N[*:1])C(=O)[*:2])N1C1OC(CO)C(O)C(O)C1O; ξEnduracididine(βξ-OH,4'ξ) = N=C1NCC(C(O)C(N)C(=O)O)N1; ξCha(3ξ-Me) = CC(C1CCCCC1)C(N)C(=O)O; Cha = N[CH](CC1CCCCC1)C(=O)O

compound | censoring-operator | MIC Enterococcus faecalis (GC 4553) / µg/mL
CC(c1ccccc1)C1NC(=O)CNC(=O)C(CO)NC(=O)C(C(O)C2CNC(=N)N2C2OC(CO)C(O)C(O)C2O)NC(=O)C(C(O)C2CNC(=N)N2)NC(=O)C(Cc2ccc3oc(SCc4ccc(-c5ccccc5)cc4)nc3c2)NC1=O (centres unmarked) [Example 47] | = | 4
CC(C1CCCCC1)C1NC(=O)CNC(=O)C(CO)NC(=O)C(C(O)C2CNC(=N)N2C2OC(CO)C(O)C(O)C2O)NC(=O)C(C(O)C2CNC(=N)N2)NC(=O)C(CC2CCCCC2)NC1=O (stereo not drawn) [Example 53] (cyclo(G[ξCha(3ξ-Me)][Cha][ξEnduracididine(βξ-OH,4'ξ)][X1]S); configuration not given here) | = | 4
CC(=O)Nc1cc(CC2NC(=O)C(C(C)c3ccccc3)NC(=O)CNC(=O)C(CO)NC(=O)C(C(O)C3CNC(=N)N3C3OC(CO)C(O)C(O)C3O)NC(=O)C(C(O)C3CNC(=N)N3)NC2=O)ccc1O (centres unmarked) [Example 13] | = | 64
CCCCCCC(=O)Nc1cc(CC2NC(=O)C(C(C)c3ccccc3)NC(=O)CNC(=O)C(CO)NC(=O)C(C(O)C3CNC(=N)N3C3OC(CO)C(O)C(O)C3O)NC(=O)C(C(O)C3CNC(=N)N3)NC2=O)ccc1O (centres unmarked) [Example 16] | = | 64
CC(c1ccccc1)C1NC(=O)CNC(=O)C(CO)NC(=O)C(C(O)C2CNC(=N)N2C2OC(CO)C(O)C(O)C2O)NC(=O)C(C(O)C2CNC(=N)N2)NC(=O)C(Cc2ccc3oc(-c4ccc(N(C)C)cc4)nc3c2)NC1=O (centres unmarked) [Example 29] | = | 16
CC(c1ccccc1)C1NC(=O)CNC(=O)C(CO)NC(=O)C(C(O)C2CNC(=N)N2C2OC(CO)C(O)C(O)C2O)NC(=O)C(C(O)C2CNC(=N)N2)NC(=O)C(Cc2ccc3oc(SCC(=O)c4ccc(Cl)cc4)nc3c2)NC1=O (centres unmarked) [Example 49] | = | 4
CC(c1ccccc1)C1NC(=O)CNC(=O)C(CO)NC(=O)C(C(O)C2CNC(=N)N2C2OC(CO)C(O)C(O)C2O)NC(=O)C(C(O)C2CNC(=N)N2)NC(=O)C(Cc2ccc3oc(-c4ccc(C(C)(C)C)cc4)nc3c2)NC1=O (centres unmarked) [Example 32] | = | 8
CC(c1ccccc1)C1NC(=O)CNC(=O)C(CO)NC(=O)C(C(O)C2CNC(=N)N2C2OC(CO)C(O)C(O)C2O)NC(=O)C(C(O)C2CNC(=N)N2)NC(=O)C(Cc2ccc(O)c(NC(=O)c3ccccc3)c2)NC1=O (centres unmarked) [Example 17] | > | 64

###

Test system: Staphylococcus sp.
Experiment: In vitro antibacterial evaluation: minimum inhibitory concentration (MIC), broth dilution method
Assay type: cell-based
Settings: strain GC 4542; broth dilution, 18 hours at 35° C.
endpoint-name: MIC Staphylococcus aureus (GC 4542) (µg/mL)

molecule | target-or-system | value
COC1CCC2(C)C(CCC3C2CCC2(C)C(C(C)CCC4OCC5OC(OC6C(CO)OC(Oc7ccc(CC8NC(=O)C(C(C)c9ccccc9)NC(=O)CNC(=O)C(CO)NC(=O)C(C(O)C9CNC(=N)N9C9OC(CO)C(O)C(O)C9O)NC(=O)C(C(O)C9CNC(=N)N9)NC8=O)cc7)C(O)C6O)C(O)C(O)C5O4)CCC32)C1 (stereo not shown) | Staphylococcus sp. | 32
CSc1ccc(C2OCC3OC(OC4C(CO)OC(Oc5ccc(CC6NC(=O)C(C(C)c7ccccc7)NC(=O)CNC(=O)C(CO)NC(=O)C(C(O)C7CNC(=N)N7C7OC(CO)C(O)C(O)C7O)NC(=O)C(C(O)C7CNC(=N)N7)NC6=O)cc5)C(O)C4O)C(O)C(O)C3O2)cc1 (stereo not shown) | Staphylococcus sp. | 0.5
COc1cc(OC)cc(C2OC3C(OC4C(CO)OC(Oc5ccc(CC6NC(=O)C(C(C)c7ccccc7)NC(=O)CNC(=O)C(CO)NC(=O)C(C(O)C7CNC(=N)N7C7OC(CO)C(O)C(O)C7O)NC(=O)C(C(O)C7CNC(=N)N7)NC6=O)cc5)C(O)C4O)OC(CO)C(O)C3O2)c1 (stereo not shown) [Example 150a] | Staphylococcus sp. | 32
CC(c1ccccc1)C1NC(=O)CNC(=O)C(CO)NC(=O)C(C(O)C2CNC(=N)N2C2OC(CO)C(O)C(O)C2O)NC(=O)C(C(O)C2CNC(=N)N2)NC(=O)C(Cc2ccc(OC3OC(CO)C(OC4OC5COC(c6cccs6)OC5C(O)C4O)C(O)C3O)cc2)NC1=O (stereo not shown) | Staphylococcus sp. | 2
